Item-by-item account of abundance fitness
B1: Peroxisome proliferator-activated receptor delta, residues 71 to 145; numbered along this chain, Q03181 (parent)
chain: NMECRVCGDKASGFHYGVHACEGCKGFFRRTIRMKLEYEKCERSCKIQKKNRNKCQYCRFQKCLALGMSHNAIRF

# Variants of: B1
# test_details: abundance fitness (aPCA) (normalised: wild type 0, dead -1); higher = more abundant; growth selection in yeast, the domain comes from the species named
# test_context: Homo sapiens
measured_quantity: abundance fitness

[[record]]
sequence = "NMECRVCGDKASGFHYGVHACEGCKGFFRRTIRMKLEYEKCERSCKIQKKNRNKCQYCMFQKCLALGMSHNAIRF [R59M]"
reported = -0.023

[[record]]
sequence = "NMECRICGDKASGFHYGVHACEGCKGFFRRTIRMKLEYEKCERSCKIQKKNRNKCQYCRFQKCLALGMSHNAIRF [V6I]"
reported = 0.059

[[record]]
sequence = "NMECRVCGDKASGFHYGVHACEGCKGFFRRFIRMKLEYEKCERSCKIQKKNRNKCQYCRFQKCLALGMSHNAIRF [T31F]"
reported = -0.406

[[record]]
sequence = "NMECRVCGDKASGFHYGVHACEGCKGFFRRTIRMKLMYEKCERSCKIQKKNRNKCQYCRFQKCLALGMSHNAIRF [E37M]"
reported = -0.164

[[record]]
sequence = "NMECRVCGDKASGFHYGVHACEGCKGFFRRTISMKLEYEKCERSCKIQKKNRNKCQYCRFQKCLALGMSHNAIRF [R33S]"
reported = 0.168

[[record]]
sequence = "NMECRVCGDKASGFHYGVHACEGCKGFVRRTIRMKLEYEKCERSCKIQKKNRNKCQYCRFQKCLALGMSHNAIRF [F28V]"
reported = -0.538

[[record]]
sequence = "NMECRVCGDKASGFHYGVHACEGCLGFFRRTIRMKLEYEKCERSCKIQKKNRNKCQYCRFQKCLALGMSHNAIRF [K25L]"
reported = 0.112

[[record]]
sequence = "NMECRVCGDKASGFHYGVHLCEGCKGFFRRTIRMKLEYEKCERSCKIQKKNRNKCQYCRFQKCLALGMSHNAIRF [A20L]"
reported = -0.106

[[record]]
sequence = "NMECRVCGDKASGFHYGVHACEGCKGFFRRTIRMKAEYEKCERSCKIQKKNRNKCQYCRFQKCLALGMSHNAIRF [L36A]"
reported = -0.135

[[record]]
sequence = "NMECRVCGDKASGFHYGVHACEGHKGFFRRTIRMKLEYEKCERSCKIQKKNRNKCQYCRFQKCLALGMSHNAIRF [C24H]"
reported = -0.15

[[record]]
sequence = "NMECRVCGDFASGFHYGVHACEGCKGFFRRTIRMKLEYEKCERSCKIQKKNRNKCQYCRFQKCLALGMSHNAIRF [K10F]"
reported = -0.283

[[record]]
sequence = "NMECRVAGDKASGFHYGVHACEGCKGFFRRTIRMKLEYEKCERSCKIQKKNRNKCQYCRFQKCLALGMSHNAIRF [C7A]"
reported = -0.66


Cited source for all entries: the Human Domainome abundance scans (Beltran et al. 2025)
